Experiment: Example 18 Part 2: multiple dose PK (20 mg QID) of 3,4-DAP and 3-N-acetyl metabolite in slow and fast acetylators
Assay type: in vivo, human
Conditions: both sexes, human, plasma, oral, 20 mg, Day 1, Dose 3, fast acetylators, 20 mg QID; read-out: Mean Vz/F
recorded_metric: Vd/F (L)

> print(dat)
                                   compound  recorded.metric  experimental.result
1  Nc1ccncc1N [3,4-DAP, 3,4-diaminopyridine]             Vd/F                 1720

----------
Assay: Example 18 Part 2: multiple dose PK (20 mg QID) of 3,4-DAP and 3-N-acetyl metabolite in slow and fast acetylators
Format: in vivo, human
Settings: both sexes, human, plasma, oral, 20 mg, Day 4, 20 mg single dose, slow acetylators; read-out: Mean AUC0-4
recorded_metric: AUC(0-t) (ng·h/mL)

> print(dat)
                                   compound  experimental.result
1  Nc1ccncc1N [3,4-DAP, 3,4-diaminopyridine]                  133
